Experiment: chemical genetic growth profiling, strain panel (AID 1159580);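 note: tested at 20 µM; growth read once vehicle control cultures reached saturation at 30 °C; 1 = growth at the plate median or of vehicle wells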
Conditions: S. cerevisiae deletion strains, growth OD, locus YPR163C, strain tif3, stronger effect = lower value
Out of some 5,500 compounds screened, about 2,000 (36%) were called active. Not shown: some 18% with an inconclusive outcome. The list shows a part of the results.
Listing of entries alongside the reported normalized growth.
No unit in the answer, only the number.

State, in one line, measured normalized growth of c1ccc2c(c1)[nH]c1cnccc12
0.985

Write down normalized growth measured for item OCCN1CCN(CCCN2c3ccccc3Sc3ccc(Cl)cc32)CC1
0.987

Others:
Please look at this compound and report its normalized growth: COc1cc(O)c(C(=O)O)c(O)c1
1.01

Please report the measured normalized growth for COc1ccc2c(=O)c(CC(=O)O)coc2c1
0.995

* * *

Assay: chemical genetic growth profiling, strain panel (AID 1159580)
Settings: S. cerevisiae deletion strains, growth OD, locus YDR101C, strain arx1
Out of some 5,500 compounds screened, about 2,000 (36%) were called active. Another 18% or so got no clear call; they are omitted. No stated cut-off is given here; in the data, active means normalized growth mostly below about 0.91 (no sharp cut-off); inconclusive means no clear call, values can overlap the other calls; inactive means mostly above about 0.92. Some of the results follow.
Log the outcome using a class from 1.0 = active, 0.0 = inactive

Check out these entries, answers already filled in.
Give the logged outcome of this assay for the following compound: O=C1c2ccccc2C(=O)c2c1ccc(O)c2O
1.0

Record request — test call for Cc1cc(O)c2c(c1O)C(=O)c1c(O)cc(C)c(O)c1C2=O
0.0

Field: outcome | Entry: N#Cc1ccc2c(c1)N(CCCN1CCC(O)CC1)c1ccccc1S2
0.0

Record request — test call for CC1=C2[C@](C)(C=CC1=O)C[C@H](O)[C@H]1[C@H](C)C(=O)O[C@]21C
0.0

Could you kindly confirm the outcome this assay logged for CCOC(=O)C1=C(C)NC(C)=C(C(=O)OC)C1c1cccc([N+](=O)[O-])c1 (stereo not given) ?
0.0

What call does the record list for CN1CCN(CCCN2c3ccccc3Sc3ccc(Cl)cc32)CC1 ?
0.0

# evaluate next
Dear colleague, could you share the recorded outcome for C/C=C(\C)C(=O)OC1[C@@H]2C=C3C4CC(=O)O[C@@H](c5ccoc5)[C@]4(C)CCC3[C@@](C)(C2=O)[C@@H](C(O)C(=O)OC)C1(C)C (stereo not given in full) when you have a moment?
0.0

* * *

Assay: chemical genetic growth profiling, strain panel (AID 1159580)
Details: S. cerevisiae deletion strains, growth OD, locus YNL153C, strain GIM3, stronger effect = lower value
Among all 5,500 compounds or so, about 2,000 (36%) were called active. Not shown: some 18% with an inconclusive outcome. This is one part of the list.
Readout Name: normalized growth
Just the number, please, no unit after it.

Give the value of normalized growth reported for the following: CCSC(SCC)[C@H](O)[C@@H](O)[C@H](O)CO
0.988

Supply reported normalized growth belonging to this compound: CSC(=Nc1ccc(C(C)C)cc1)NC#N
1

For the compound CC1=C2CCC3C(CC[C@]4(C)C(=O)CCC34)[C@@]2(C)CCC1=O (stereo not given in full) , report normalized growth.
0.99

Please look at this compound and report its normalized growth: COc1ccc(-c2ccc(N)[n+](CCCC(=O)O)n2)cc1
1.03

Now look at this entry.
Fill in reported normalized growth for this entry: COC(=O)C[C@H]1C(C)(C)C(OC(C)=O)[C@]2(O)C=C3C4CC(=O)O[C@@H](c5ccoc5)[C@]4(C)CCC3[C@@]1(C)C2=O (stereo not given in full)
1.02

* * *

Assay: chemical genetic growth profiling, strain panel (AID 1159580)
Settings: S. cerevisiae deletion strains, growth OD, locus YNL161W, strain CBK1, stronger effect = lower value
Screen size: about 5,500 compounds; about 2,000 (36%) were called active. About 18% were inconclusive and are not listed. This is one part of the list.
Readout Name: normalized growth
Number only, no unit.

Study these solved cases before continuing.
Fill in reported normalized growth for this entry: Nc1ccccc1C(=O)N/N=C\c1cc(Cl)cc(Cl)c1O
0.967

Let me know recorded normalized growth for O=C(N/N=C\c1cc(Cl)cc(Cl)c1O)c1ccccc1Oc1ccccc1 , thanks.
0.971

--- query ---
Answer with the recorded normalized growth of CC(C)(C)c1cc(C(=O)/C(C#N)=N\Nc2ccc(Cl)cc2)no1 only.
0.96

* * *

Experiment: chemical genetic growth profiling, strain panel (AID 1159580)
Conditions: S. cerevisiae deletion strains, growth OD, locus YDL005C, strain med2, stronger effect = lower value
Among all 5,500 compounds or so, about 2,000 (36%) were called active. Roughly 18% stayed inconclusive and do not appear here. This is one part of the list.
normalized growth values for the compounds below.

State its normalized growth: O=C1c2ccccc2C(=O)c2c1ccc(O)c2O
0.663 (active)

Read off the recorded normalized growth for C[C@]12CCC3C(CC[C@H]4C[C@@H](O)CC[C@]34C)C1CCC2=O (stereo partly drawn)
1.03 (inactive)

Input CCCC(=O)Nc1ncnc2c1ncn2C1O[C@@H]2COP(=O)(O)O[C@H]2[C@H]1OC(=O)CCC (stereo partly drawn) , output reported normalized growth.
0.982 (inactive)

Recall and state the measured normalized growth for Cn1nnnc1SCC1=C(C(=O)O)N2C(=O)C(NC(=O)C(OC=O)c3ccccc3)C2SC1 (stereo not drawn) .
0.991 (inactive)

Give me measured normalized growth, please, for this compound: CC1=C2CCC3C(CC[C@]4(C)C(=O)CCC34)[C@@]2(C)CCC1=O (stereo partly drawn)
0.993 (inactive)

Let me know recorded normalized growth for COc1ccc(Cc2nccc3cc(OC)c(OC)cc23)cc1OC , thanks.
0.994 (inactive)

More entries:
For the compound O=c1ccc2ccc(O)c(O)c2o1 , report normalized growth.
1 (inactive)

Please report the measured normalized growth for COC(=O)C[C@H]1C(C)(C)[C@@H](OC(C)=O)[C@@H]2CC3C4CC(=O)O[C@@H](c5ccoc5)[C@]4(C)CCC3[C@@]1(C)C2=O (stereo partly drawn)
1.01 (inactive)

* * *

# normalized growth listing for each entry below
Assay: chemical genetic growth profiling, strain panel (AID 1159580);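 note: tested at 20 µM; growth read once vehicle control cultures reached saturation at 30 °C; 1 = growth at the plate median or of vehicle wells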
Settings: S. cerevisiae deletion strains, growth OD, locus YLR027C, strain aat2, stronger effect = lower value
The campaign covered roughly 5,500 compounds. About 2,000 (36%) were called active. About 18% were inconclusive and are not listed. The list shows a part of the results.
Field format: numeric only.

For the molecule CNC(=O)CSP(=S)(OC)OC , report normalized growth.
1.01

// fetch normalized growth given entry COP(=S)(OC)SCn1nnc2ccccc2c1=O
0.996

Supply measured normalized growth of CC1(C)C[C@@H]2C(=O)CC[C@H]3O[C@]3(C)CC[C@H]21 in your reply.
1.03

For the molecule Nc1ncnc2c1ncn2[C@@H]1O[C@H](CO)[C@@H](O)[C@@H]1O , report normalized growth.
1.01

Answer with the recorded normalized growth for the molecule listed here: CC1(C)S[C@@H]2[C@H](NC(=O)COc3ccccc3)C(=O)N2[C@H]1C(=O)O
0.973

Moving on to another molecule below.
Respond only with normalized growth recorded for COc1ccc2c(=O)c(CC(=O)O)coc2c1
0.977

* * *

Reported normalized growth by item:
Assay: chemical genetic growth profiling, strain panel (AID 1159580);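 note: tested at 20 µM; growth read once vehicle control cultures reached saturation at 30 °C; 1 = growth at the plate median or of vehicle wells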
Settings: S. cerevisiae deletion strains, growth OD, locus YER111C, strain swi4, stronger effect = lower value
Out of some 5,500 compounds screened, about 2,000 (36%) were called active. About 18% were inconclusive and are not listed. Some of the results follow.
Reply: number alone, nothing else.

Dear colleague, please send me the reported normalized growth for CCOc1ccc(Cc2nccc3cc(OCC)c(OCC)cc23)cc1OCC when you can.
0.972

Further cases:
Note normalized growth for the compound shown: COc1ccc(Cc2nccc3cc(OC)c(OC)cc23)cc1OC
1.01

Please report the measured normalized growth for COC(=O)C[C@H]1C(C)(C)[C@@H](OC(C)=O)[C@@H]2CC3C4CC(=O)O[C@@H](c5ccoc5)[C@]4(C)CCC3[C@@]1(C)C2=O (stereo not given in full)
1.02

Hello, please tell me recorded normalized growth for this one: CCCC(=O)Nc1ncnc2c1ncn2C1O[C@@H]2COP(=O)(O)O[C@H]2[C@H]1OC(=O)CCC (stereo not given in full)
0.973

Identify measured normalized growth corresponding to Cc1c(N(C)CS(=O)(=O)O)c(=O)n(-c2ccccc2)n1C
1.01

* * *

Assay: chemical genetic growth profiling, strain panel (AID 1159580);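 note: tested at 20 µM; growth read once vehicle control cultures reached saturation at 30 °C; 1 = growth at the plate median or of vehicle wells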
Details: S. cerevisiae deletion strains, growth OD, locus YEL003W, strain gim4, stronger effect = lower value
About 2,000 (36%) of roughly 5,500 compounds were called active. Not shown: some 18% with an inconclusive outcome. This is one part of the list.
Readout Name: normalized growth
Please give only the number in your answer, with no unit.

The examples below pair each entry with its known result.
Entry CC1(C)C[C@@H]2C(=O)CC[C@H]3O[C@]3(C)CC[C@H]21 needs its normalized growth filled in; supply it.
1.01

Indicate its recorded normalized growth; the molecule in question is CC1(C)S[C@@H]2[C@H](NC(=O)COc3ccccc3)C(=O)N2[C@H]1C(=O)O
0.997

Return reported normalized growth. Input molecule: CCOc1ccc(Cc2nccc3cc(OCC)c(OCC)cc23)cc1OCC
0.963

***
Supply measured normalized growth of C[C@H]1C(=O)O[C@@H]2CCN3CC=C(COC(=O)[C@](C)(O)[C@]1(C)O)[C@H]23 in your reply.
0.991

Given C[C@]12CCC3c4ccc(O)cc4CCC3C1CC[C@@H]2OC(=O)CCC1CCCC1 (stereo not given in full) , respond with its normalized growth.
0.988

Determine its reported normalized growth: COc1cc(O)c(C(=O)O)c(O)c1
1

Given Cn1nnnc1SCC1=C(C(=O)O)N2C(=O)C(NC(=O)C(OC=O)c3ccccc3)C2SC1 (stereo not given) , respond with its normalized growth.
1

# return recorded normalized growth for input CC(=O)N[C@@H](CC(=O)O)C(=O)O
1.01

Please list normalized growth recorded for the molecule CN(C)c1nc(N(C)C)nc(N(C)C)n1
0.987

Quick one: give measured normalized growth for C=C(C)c1cc2cc(C(C)=O)c(O)cc2o1
0.973

Identify normalized growth associated with the molecule CC(=O)Oc1ccc2c(c1)CCC1C2CC[C@@]2(C)C1CC[C@@H]2OC(C)=O (stereo not given in full)
0.973

Return the recorded normalized growth value; entry: O=C(O)c1cc2cc(Cl)ccc2[nH]1
1

Fill in normalized growth for record COc1c(O)cc(O)cc1O
1.02

Supply reported normalized growth belonging to this molecule: Cc1cc(C)nc(NS(=O)(=O)c2ccc(N)cc2)n1
0.967

Please look at this molecule and report its normalized growth: CCCC(=O)Nc1ncnc2c1ncn2C1O[C@@H]2COP(=O)(O)O[C@H]2[C@H]1OC(=O)CCC (stereo not given in full)
0.995

Could you please provide reported normalized growth for COc1cc(O)c(C(C)=O)c(OC)c1 ? Thanks!
0.984

Using known records, supply normalized growth for CC(=O)OC1CCC23C(=O)OC45CCC(C6=CC(=O)OC6)C4(C)CCC2C5CCC3(O)C1 (stereo not given)
0.988

Annotate the molecule CCCCC(=O)N(Cc1ccc(-c2ccccc2-c2nn[nH]n2)cc1)[C@H](C(=O)O)C(C)C with its measured normalized growth.
0.968

Output measured normalized growth for this item: Cn1c([N+](=O)[O-])cnc1COC(N)=O
0.999

Supply reported normalized growth belonging to this molecule: COc1cc(OC)c2c(c1Cl)OC1(C2=O)C(O)=CC(=O)CC1C (stereo not given)
1.01

Give normalized growth for the following molecule: CCCCC(=O)O[C@H]1CCC2C3CCc4cc(O)ccc4C3CC[C@@]21C (stereo not given in full)
1.02

State its normalized growth: CCCCC/C=C\C/C=C\C/C=C\C/C=C\CCCC(=O)O
0.975

Specify normalized growth for CCOc1nc2cccc(C(=O)OC(C)OC(=O)OC3CCCCC3)c2n1Cc1ccc(-c2ccccc2-c2nn[nH]n2)cc1 (stereo not given) and stop.
1.03

Supply reported normalized growth belonging to this molecule: COc1cc(O)c(C)c(O)c1
1.03

Supply normalized growth value. Item: CCS(=O)(=O)CCn1c([N+](=O)[O-])cnc1C
0.995
